Biological target: recombinant human IL-1B (human, UniProt P01584 117-269)
Test: cell-based or functional assay
Catalogue of IC50, rec. human IL-1 B, HEK blue readings, one per entry.
Numeric answer only, unit nM assumed.

Worked cases, answers included:
1) Antibody A4 (antibody, V domains shown) VH: QVQLVQSGAEVKKPGASVKVSCKATGYTFTDYWIAWVRQAPGQGLEWMGSIFPGGDYTNYNEKFKGRVTMTRDTSTSTSYMELSSLRSEDTAVYYCARPYYSNYGHFDYWGQGTLVTVSS VL: EIVLTQSPATLSLSPGERATLSCRASESVDNSGIGFMNWYQQKPGQAPRLLIYAASNQGSGIPARFSGSGSGTDFTLTISRLEPEDFAVYYCQQNKELPWTFGQGTKLEIK
0.04
2) Antibody B1 (antibody, V domains shown) VH: EVQLVQSGAEVKKPGASVKVSCKASGFSFTGYYMHWVRQAPGQGLEWVGLIIPHNDYTVNNQKFKGRVTMTRDTSTSTAYMELSSLRSEDTAVYYCARSDYYGAMDYWGQGTLVTVSS VL: EIVMTQSPATLSVSPGERATLSCRASQNIGTSIHWYQQKPGQAPRLLIKYASNSIYGIPARFSGSGSGTEFTLTISSLQSEDIAVYYCQQGASWPPFTFGQGTKLEIK
0.013
3) Antibody A3 (antibody, V domains shown) VH: QVQLVQSGAEVKKPGASVKVSCKATGYTFTDYWIAWVRQAPGQGLEWMGSIFPGGDYTNYNEKFKGRVTMTRDTSTSTSYMELSSLRSEDTAIYYCARPYYSNYGHFDYWGQGTLVTVSS VL: EIILTQFPATLSLSPGERATISCRASESVDNSGIGFMNWYQQKPGQAPRLLIYAASNQGSGIPARFSGSGSGTDFTLTISRLEPEDFAVYYCQQNKELPWTFGQGTKLEIK
0.042

response.value for Antibody A1 (antibody, V domains shown) VH: QVQLVQSGAEVKKPGASVKVSCKATGYTFTNYWIAWVKQAPGQGLEWMGSIFPGGDYTNYNEKFKGKVTMTRDTSTSTSYMELSSLRSEDTAVYYCARPYYSNYGHFDYWGQGTLVTVSS VL: EIVLTQSPATLSLSPGERATLSCRASESVDNSGIGFMNWYQQKPGQAPKLLIYAASNQGSGIPARFSGSGSGTDFTLTISRLEPEDFAMYYCQQNKELPWTFGGGTKLEIK (field: IC50, rec. human IL-1 B, HEK blue) = 0.033
